Please go through the items and note down their combination Emax.
- System: MDST8 (Colorectal Carcinoma)
- Protocol Details: combination Emax (second highest fraction inhibited in the dose matrix, 72 h); higher = more inhibition; extreme values may be limits of the assay
Numbers only.

Some solved cases for reference:
COc1cccc(OCCCN)c1-c1cc(Nc2cnc(C#N)cn2)n[nH]1 [Prexasertib] + CCc1c2c(nc3ccc(O)cc13)-c1cc3c(c(=O)n1C2)COC(=O)[C@]3(O)CC [SN-38] (first compound max 1 µM, 7x7, partner max 0.3 µM)    0.94
Cc1c2c(nn1C)CSCc1cc(n(C)n1)CSc1cc(c3ccccc3c1)OCCCc1c(C(=O)O)n(C)c3c-2c(Cl)ccc13 [AZD5991] + C[C@@H]1COCCN1C2=NC(=NC(=C2)C3(CC3)[S@](=N)(=O)C)C4=C5C=CNC5=NC=C4 [AZD6738] (first compound max 1 µM, 7x7, partner max 10 µM)    0.78
Cc1c2c(nn1C)CSCc1cc(n(C)n1)CSc1cc(c3ccccc3c1)OCCCc1c(C(=O)O)n(C)c3c-2c(Cl)ccc13 [AZD5991] + Cn1cnc2c(F)c(Nc3ccc(Br)cc3Cl)c(C(=O)NOCCO)cc21 [Selumetinib] (first compound max 1 µM, 7x7, partner max 3 µM)    0.746
C[C@@H](c1ccc2nccn2c1)n1nnc2ncc(-c3cnn(C)c3)nc21 [Savolitinib] + CN(CC[C@H](CSC1=CC=CC=C1)NC2=C(C=C(C=C2)S(=O)(=O)NC(=O)C3=CC=C(C=C3)N4CCC(CC4)[C@H](C5=CC=CC=C5C6=CC=C(C=C6)Cl)O)S(=O)(=O)C(F)(F)F)CCO [AZD4320] (first compound max 1 µM, 7x7, partner max 1 µM)    0.626
CC1(C)CCC(CN2CCN(c3ccc(C(=O)NS(=O)(=O)c4ccc(NCC5CCOCC5)c([N+](=O)[O-])c4)c(Oc4cnc5[nH]ccc5c4)c3)CC2)=C(c2ccc(Cl)cc2)C1 [Venetoclax] + C1CN(CCC1(C(=O)N[C@@H](CCO)C2=CC=C(C=C2)Cl)N)C3=NC=NC4=C3C=CN4 [Capivasertib] (first compound max 1 µM, 7x7, partner max 3 µM)    0.317

Give me combination Emax for each of these compounds, listed below.
1. Cc1cc2ncnn2cc1Nc1ncc2c(n1)n(C1CCOCC1)c(=O)n2C [AZD7648] + CN(C)CCCOc1ccc(-c2ccc3ncc4c(c3c2)n(C2CCOCC2)c(=O)n4C)cn1 [AZD0156] (first compound max 10 µM, 7x7, partner max 1 µM)
2. COc1nnc2ccc(N3CCC(c4ccc(OCCN5CCN(C)C(=O)[C@H]5C)cc4)CC3)nn12 [AZD5153] + Cc1c2c(nn1C)CSCc1cc(n(C)n1)CSc1cc(c3ccccc3c1)OCCCc1c(C(=O)O)n(C)c3c-2c(Cl)ccc13 [AZD5991] (first compound max 1 µM, 7x7, partner max 1 µM)

0.439
0.355
